Numbers sourced from patent US10526316B2.

Quick note: these are pKd numbers for system: kinase enzymes (Homo sapiens)
pKd: −log10 of the molar value.

| Compound | Limit Sign | pKd |
| --- | --- | --- |
| CC1CN(c2cnc3cc(C(=O)N(C)C)cc(C4CCCN4c4cc(F)cc(F)c4)c3n2)CCO1 (stereo not drawn) | = | 4.80 |
| CN[C@H]1CCN(C(=O)c2cc(C(C)Oc3cc(F)c(F)c(F)c3)c3nc(N4CCOCC4)cnc3c2)C1 (single isomer, unassigned) [Compound 405a] | < | 4.52 |
| COC(=O)c1cc(C2CCCN2c2cc(F)cc(F)c2)c2nc(N3CCOCC3)cnc2c1 (single isomer, unassigned) [Compound 31] | < | 4.49 |
| CC(Nc1ccc(F)c(F)c1)c1cc(C(=O)NCC2CCCN2)cc2ncc(N3CCOCC3)nc12 (single isomer, unassigned) [Compound 329a] | = | 4.64 |
| CN(C)C(=O)c1cc(C2CCCN2c2ccc(C#N)c(F)c2)c2nc(N3CCOCC3)cnc2c1 (stereo not drawn) | = | 4.57 |
| CNCCN(C)C(=O)c1cc(C(C)Oc2cc(F)c(F)c(F)c2)c2nc(N3CCOCC3)cnc2c1 (single isomer, unassigned) [Compound 379b] | < | 4.52 |
